IC50 overview
Target: intracellular GCN2 (phosphorylation of the GCN2 substrate eIF2α) (Homo sapiens, UniProt Q9P2K8)
Sequence (Q9P2K8 whole entry): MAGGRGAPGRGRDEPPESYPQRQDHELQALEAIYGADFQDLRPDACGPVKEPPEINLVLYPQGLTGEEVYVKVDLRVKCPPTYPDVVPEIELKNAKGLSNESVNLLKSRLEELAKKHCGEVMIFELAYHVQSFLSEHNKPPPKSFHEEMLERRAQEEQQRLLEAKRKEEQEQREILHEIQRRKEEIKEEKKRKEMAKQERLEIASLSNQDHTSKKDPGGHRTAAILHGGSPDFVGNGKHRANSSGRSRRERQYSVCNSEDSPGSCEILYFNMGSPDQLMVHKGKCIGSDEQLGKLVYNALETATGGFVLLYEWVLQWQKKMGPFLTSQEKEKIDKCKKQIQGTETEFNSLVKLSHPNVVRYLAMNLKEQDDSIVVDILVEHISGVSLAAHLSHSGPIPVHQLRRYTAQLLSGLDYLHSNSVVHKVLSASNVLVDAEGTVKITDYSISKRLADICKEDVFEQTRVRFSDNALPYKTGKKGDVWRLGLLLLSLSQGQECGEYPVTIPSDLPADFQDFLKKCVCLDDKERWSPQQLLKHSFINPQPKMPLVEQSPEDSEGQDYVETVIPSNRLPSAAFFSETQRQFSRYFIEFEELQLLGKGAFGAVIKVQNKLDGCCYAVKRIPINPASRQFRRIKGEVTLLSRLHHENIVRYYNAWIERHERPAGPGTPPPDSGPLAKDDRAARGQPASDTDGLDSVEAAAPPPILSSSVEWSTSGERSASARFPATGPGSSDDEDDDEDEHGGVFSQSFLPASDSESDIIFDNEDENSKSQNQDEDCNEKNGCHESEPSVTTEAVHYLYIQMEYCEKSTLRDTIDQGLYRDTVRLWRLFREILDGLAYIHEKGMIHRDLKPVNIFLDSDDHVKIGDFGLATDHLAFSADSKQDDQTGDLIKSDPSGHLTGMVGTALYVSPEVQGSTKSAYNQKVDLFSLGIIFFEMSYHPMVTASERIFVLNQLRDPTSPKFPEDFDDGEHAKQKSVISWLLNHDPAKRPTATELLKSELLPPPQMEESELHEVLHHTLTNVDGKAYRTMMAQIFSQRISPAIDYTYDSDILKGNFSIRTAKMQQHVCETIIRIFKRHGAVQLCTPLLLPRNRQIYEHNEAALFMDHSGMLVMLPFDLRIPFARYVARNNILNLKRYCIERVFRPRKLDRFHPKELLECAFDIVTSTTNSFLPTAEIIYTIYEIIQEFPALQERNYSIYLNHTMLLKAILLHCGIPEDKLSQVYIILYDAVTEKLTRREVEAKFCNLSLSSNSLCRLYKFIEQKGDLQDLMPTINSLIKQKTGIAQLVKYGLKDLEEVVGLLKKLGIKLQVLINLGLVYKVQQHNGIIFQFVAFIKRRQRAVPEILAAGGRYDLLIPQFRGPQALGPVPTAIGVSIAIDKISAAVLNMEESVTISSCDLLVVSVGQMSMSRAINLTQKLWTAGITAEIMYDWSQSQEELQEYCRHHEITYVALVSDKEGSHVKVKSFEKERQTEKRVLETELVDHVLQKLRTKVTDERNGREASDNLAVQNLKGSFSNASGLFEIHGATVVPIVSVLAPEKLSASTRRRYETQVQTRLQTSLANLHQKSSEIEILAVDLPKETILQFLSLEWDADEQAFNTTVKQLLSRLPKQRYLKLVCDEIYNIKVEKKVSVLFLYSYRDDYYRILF
Test: GCN2 cellular inhibition assay (AlphaScreen SureFire P-eIF2α Ser51, borrelidin-treated U2OS cells)
Format: cell-based
Conditions: compounds of Formula II; biomarker assay, phosphorylated eIF2α Ser51 in borrelidin-treated U2OS cells

Example entries begin here.
Prompt: Need IC50, item `O=C(O)[C@@H]1CCCN(c2cc(-c3cnc4ccc(C(F)(F)F)nn34)ncn2)C1`
Response: > 5 µM

Prompt: Need IC50, item O=C1COC2(CN1)COCCN(c1cc(-c3cnc4ccc(C(F)F)nn34)ncn1)C2 (stereo not shown)
Response: > 5 µM

Prompt: Need IC50, item CN(C)C1CN(c2cc(-c3cnc4ccc(C(F)F)nn34)ncn2)CC(CNS(C)(=O)=O)C1(F)F (stereo not shown) [II-260]
Response: 0.5 to 5 µM

Prompt: Need IC50, item CN(CC1CCCN(c2cc(-c3cnc4ccc(C(F)F)nn34)ccn2)C1)S(C)(=O)=O (stereo not shown)
Response: 0.5 to 5 µM

Prompt: Need IC50, item CS(=O)(=O)N[C@@H]1CCCN(c2cc(-c3cnc4ccc(C(F)F)nn34)ncn2)C1 (single isomer, unassigned)
Response: 0.5 to 5 µM

Prompt: Need IC50, item CC1(F)CCN(c2cc(-c3cnc4ccc(C(F)F)nn34)ncn2)CC1CNS(C)(=O)=O (single isomer, unassigned) [II-389]
Response: 0.5 to 5 µM

Prompt: Need IC50, item `O=C1CC2(CCN(c3cc(-c4cnc5ccc(C(F)F)nn45)ncn3)CC2)N1`
Response: > 5 µM

Prompt: Need IC50, item CC1(F)CCN(c2cc(-c3cnc4ccc(C(F)F)nn34)ncn2)CC1CNS(C)(=O)=O (racemic) [II-350]
Response: < 0.5 µM

---
Prompt: Need IC50, item `CC(=O)N1CCN(c2cc(-c3cnc4ccc(C(F)(F)F)nn34)ccn2)CC1`
Response: > 5 µM

Prompt: Need IC50, item CN=S(C)(=O)CC1CCCN(c2cc(-c3cnc4ccc(C(F)F)nn34)ncn2)C1 (stereo not shown)
Response: > 5 µM

Prompt: Need IC50, item C[C@@H]1C[C@H](CS(C)(=N)=O)[C@H](C)N(c2cc(-c3cnc4ccc(C(F)F)nn34)ncn2)C1 (stereo partly shown)
Response: < 0.5 µM

Prompt: Need IC50, item `CS(=O)(=O)NC[C@@H]1CN(c2cc(-c3cnc4ccc(C(F)F)nn34)ccn2)CCO1`
Response: < 0.5 µM

Prompt: Need IC50, item CS(=O)(=O)NCC1CN(c2cc(-c3cnc4ccc(C(F)F)nn34)ncn2)CC(C2CC2)O1 (stereo not shown) [II-444]
Response: < 0.5 µM

Prompt: Need IC50, item CNc1cc(N2CCCC(CNS(C)(=O)=O)C2)cc(-c2cnc3ccc(C(F)F)nn23)n1 (stereo not shown)
Response: < 0.5 µM

Prompt: Need IC50, item `C[C@H]1CO[C@@H](CNS(C)(=O)=O)CN1c1cc(-c2cnc3ccc(C(F)F)nn23)ncn1`
Response: 0.5 to 5 µM

Prompt: Need IC50, item CC1CCC(CNS(C)(=O)=O)CN1c1cc(-c2cnc3ccc(C(F)F)nn23)ncn1 (stereo not shown) [II-245]
Response: > 5 µM

----------
Molecular target: GCN2 kinase (Homo sapiens)
Sequence (Q9P2K8 whole entry): as above
Experiment: GCN2 enzyme inhibition assay (Transcreener ADP2 fluorescence polarization)
Format: biochemical
Conditions: compounds of Formula II; 280 μM ATP, 4 nM GCN2 kinase
pKi: −log10 of the molar value.
pKi overview

Example entries begin here.
Prompt: Need pKi, item CC1NCCN(c2cc(-c3cnc4ccc(C(F)F)nn34)ncn2)C1CNS(C)(=O)=O (centres unmarked) [II-336]
Response: < 6.00

Prompt: Need pKi, item FC(F)c1ccc2ncc(-c3cc(N4CCCCC4C(F)(F)F)ncn3)n2n1 (centres unmarked) [II-380]
Response: < 6.00

Prompt: Need pKi, item Cc1cc(C(=O)N=S(C)(C)=O)cc(-c2cc(-c3cnc4ccc(C(F)F)nn34)ncn2)c1 [II-611]
Response: 6.00 to 8.00

Prompt: Need pKi, item CC(NS(C)(=O)=O)c1cccc(-c2cc(-c3cnc4ccc(C(F)F)nn34)ncn2)c1 (centres unmarked) [II-609]
Response: > 8.00

Prompt: Need pKi, item CN1CCN(c2cc(-c3cnc4ccc(C(F)F)nn34)ccn2)CC1CNS(C)(=O)=O (centres unmarked) [II-98]
Response: 6.00 to 8.00

---
Prompt: Need pKi, item CC1CCC(N=S(C)(C)=O)CN1c1cc(-c2cnc3ccc(C(F)F)nn23)ncn1 (centres unmarked) [II-696]
Response: 6.00 to 8.00

Prompt: Need pKi, item O=C1OC[C@@H]2CN(c3cc(-c4cnc5ccc(C(F)F)nn45)ncn3)CCN12 [II-47]
Response: 6.00 to 8.00

Prompt: Need pKi, item CC1(NS(C)(=O)=O)CCCN(c2cc(-c3cnc4ccc(C(F)F)nn34)ncn2)C1 (centres unmarked) [II-446]
Response: 6.00 to 8.00
